The following molecules are shown together with reported IC50 values.
TARGET_OR_SYSTEM: His-BIR3 (241-356, XIAP) (Homo sapiens)
Construct: additions of His-BIR3 (241-356, XIAP), fluorescein labeled SMAC peptide
ASSAY: XIAP-BIR3/SMAC Homogeneous Time Resolved Fluorescence (HTRF) Assay
Assay type: binding
MEASUREMENT_SETUP: fluorescein labeled SMAC peptide
State just the number; it will be interpreted in nM.

Recorded IC50 for CN[C@@H](C)C(=O)N[C@H](C(=O)N1C[C@@H]2C[C@H]1C(=O)NC(Cc1ccc3ccccc3c1)C(=O)N[C@H](C(=O)NS(=O)(=O)C1CC1)Cc1ccc(cc1)OCCCC[C@H]1C[C@@H](C(=O)N[C@@H](Cc3ccc4ccccc4c3)C(=O)N[C@H](C(=O)NS(=O)(=O)C3CC3)Cc3ccc(cc3)OCc3cn2nn3)N(C(=O)[C@@H](NC(=O)[C@H](C)NC)C(C)(C)C)C1)C(C)(C)C (some centres unmarked) , please?
4.6

Subsequent entry: CN[C@@H](C)C(=O)N[C@H](C(=O)N1CC[C@H]2OCc3cn(nn3)CC[C@@H](C(=O)OC)NC(=O)[C@H](Cc3ccc4ccccc4c3)NC(=O)[C@@H]3[C@@H](CCN3C(=O)[C@@H](NC(=O)[C@H](C)NC)C(C)(C)C)OC/C=C/CC[C@@H](C(=O)O)NC(=O)[C@H](Cc3ccc4ccccc4c3)NC(=O)[C@H]21)C(C)(C)C
6.2

* * *

TARGET_OR_SYSTEM: His-BIR3 (241-356, XIAP) (Homo sapiens, UniProt P98170)
Construct: additions of His-BIR3 (241-356, XIAP), fluorescein labeled SMAC peptide
Sequence (P98170 241-356): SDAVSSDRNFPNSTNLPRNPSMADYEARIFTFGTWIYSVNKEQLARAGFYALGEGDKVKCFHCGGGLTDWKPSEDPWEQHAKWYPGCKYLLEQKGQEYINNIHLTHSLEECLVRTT
ASSAY: XIAP-BIR3/SMAC Homogeneous Time Resolved Fluorescence (HTRF) Assay
MEASUREMENT_SETUP: fluorescein labeled SMAC peptide
READOUT_NAME: IC50 (µM)
State just the number; it will be interpreted in µM.

[
  {
    "MOLECULE": "CN[C@@H](C)C(=O)N[C@H](C(=O)N1C[C@@H]2C[C@H]1C(=O)N[C@@H](Cc1ccc3ccccc3c1)C(=O)N[C@H](C(=O)O)Cc1ccc(cc1)OC/C=C/C[C@H]1C[C@@H](C(=O)N[C@@H](Cc3ccc4ccccc4c3)C(=O)N[C@H](C(=O)NS(=O)(=O)C3CC3)Cc3ccc(cc3)OCc3cn2nn3)N(C(=O)[C@@H](NC(=O)[C@H](C)NC)C(C)(C)C)C1)C(C)(C)C",
    "TARGET_OR_SYSTEM": "His-BIR3 (241-356, XIAP) (Homo sapiens, UniProt P98170)",
    "OBS_VALUE": 0.0017
  }
]

Recorded IC50 for CN[C@@H](C)C(=O)NC(C(=O)N1C[C@@H]2C[C@H]1C(=O)N[C@@H](Cc1ccc3ccccc3c1)C(=O)N[C@H](C(=O)O)Cc1ccc(cc1)OC/C=C/C(=O)N1CCN(C(=O)[C@@H](NC(=O)[C@H](C)NC)C(C)(C)C)[C@@H](C1)C(=O)N[C@@H](Cc1ccc3ccccc3c1)C(=O)N[C@H](C(=O)O)CCC(=O)N2)C(C)(C)C (some centres unmarked) , please?
0.0443

* * *

TARGET_OR_SYSTEM: His-BIR3 (241-356, XIAP) (Homo sapiens, UniProt P98170)
Construct: additions of His-BIR3 (241-356, XIAP), fluorescein labeled SMAC peptide
ASSAY: XIAP-BIR3/SMAC Homogeneous Time Resolved Fluorescence (HTRF) Assay
MEASUREMENT_SETUP: fluorescein labeled SMAC peptide
READOUT_NAME: pIC50
The quantity pIC50 is defined as the negative base-10 logarithm of the molar concentration.

[
  {
    "MOLECULE": "CN[C@@H](C)C(=O)N[C@H](C(=O)N1C[C@@H]2C[C@H]1C(=O)N[C@@H](Cc1ccc3ccccc3c1)C(=O)N[C@H](C(=O)O)Cc1ccc(cc1)OC/C=C/CO[C@H]1C[C@@H](C(=O)N[C@@H](c3ccccc3)C(=O)N[C@H](C(=O)O)Cc3ccc(cc3)C(=O)N2)N(C(=O)[C@@H](NC(=O)[C@H](C)NC)C(C)(C)C)C1)C(C)(C)C [Example 53]",
    "pIC50": 7.32
  }
]

// moving on: another record for pIC50
Enter reported pIC50 observed with His-BIR3 (241-356, XIAP) (Homo sapiens, UniProt P98170) for CN[C@@H](C)C(=O)N[C@H](C(=O)N[C@H]1C/C=C/CC[C@@H](C(=O)O)NC(=O)[C@H](Cc2ccc3ccccc3c2)NC(=O)[C@@H]2[C@@H](CCN2C(=O)[C@@H](NC(=O)[C@H](C)NC)C(C)(C)C)OCc2cn(nn2)CC[C@@H](C(=O)OC)NC(=O)[C@H](Cc2ccc3ccccc3c2)NC1=O)C(C)(C)C
8.32
